Test system: K98450-129-R-PDC multicell spheroids, viability
Assay: Anticancer human tumor K98450-129-R-PDC patient-derived colon adenocarcinoma cell line growth inhibition [PI3K]
Details: second compound 0.1 µM; first compound 0.1 µM; stronger effect = lower value
Text: Combinatorial screen of targeted agents with the PI3K inhibitors inavolisib, alpelisib, duvelisib, and copanlisib in multi-cell type tumor spheroids A high-throughput screen of multi-cell type tumor spheroids was designed to identify active combinations of targeted small molecules and PI3K pathway inhibitors. […] Compounds. […] If the clinical Cmax for an agent had not been determined, the highest concentration tested was 10 microM. […]
Observable: viability, T/C (%)

[[record]]
compound = "Cn1nccc1Nc1nccc(-c2ccn(C(CO)c3ccc(Cl)c(F)c3)c(=O)c2)n1 (stereo unspecified) + CC(Nc1ncnc2nc[nH]c12)c1cc2cccc(Cl)c2c(=O)n1-c1ccccc1"
readout_number = 100

[[record]]
compound = "Cn1ncnc1[C@H]1c2n[nH]c(=O)c3cc(F)cc(c23)N[C@@H]1c1ccc(F)cc1 + CC(Nc1ccc2c(c1)OCCn1cc(N3C(=O)OCC3C(F)F)nc1-2)C(N)=O"
readout_number = 89.8

[[record]]
compound = "CC(Cn1ccc(-c2ccc(C#N)c(Cl)c2)n1)NC(=O)c1cc(C(C)O)[nH]n1 (stereo unspecified) + CC(Nc1ccc2c(c1)OCCn1cc(N3C(=O)OCC3C(F)F)nc1-2)C(N)=O"
readout_number = 100

[[record]]
compound = "C[C@@H](NC(=O)c1ncnc(N)c1Cl)c1ncc(C(=O)Nc2cc(C(F)(F)F)c(Cl)cn2)s1 + COc1c(OCCCN2CCOCC2)ccc2c3n(c(=NC(=O)c4cnc(N)nc4)nc12)CCN3"
readout_number = 87

[[record]]
compound = "CNC(=O)c1ccc(N2C(=S)N(c3ccc(C#N)c(C(F)(F)F)c3)C(=O)C2(C)C)cc1F + COc1c(OCCCN2CCOCC2)ccc2c3n(c(=NC(=O)c4cnc(N)nc4)nc12)CCN3"
readout_number = 83.2

[[record]]
compound = "CCCS(=O)(=O)Nc1ccc(F)c(C(=O)c2c[nH]c3ncc(-c4ccc(Cl)cc4)cc23)c1F + COc1c(OCCCN2CCOCC2)ccc2c3n(c(=NC(=O)c4cnc(N)nc4)nc12)CCN3"
readout_number = 98.2

[[record]]
compound = "C=CC(=O)N1CCN(c2nc(=O)n(-c3c(C)ccnc3C(C)C)c3nc(-c4c(O)cccc4F)c(F)cc23)C(C)C1 (stereo unspecified) + CC(Nc1ccc2c(c1)OCCn1cc(N3C(=O)OCC3C(F)F)nc1-2)C(N)=O"
readout_number = 100

[[record]]
compound = "CCN1CCN(Cc2ccc(Nc3ncc(F)c(-c4cc(F)c5nc(C)n(C(C)C)c5c4)n3)nc2)CC1 + CC(Nc1ccc2c(c1)OCCn1cc(N3C(=O)OCC3C(F)F)nc1-2)C(N)=O"
readout_number = 85.5

[[record]]
compound = "CC(=O)c1c(C)c2cnc(Nc3ccc(N4CCNCC4)cn3)nc2n(C2CCCC2)c1=O + COc1c(OCCCN2CCOCC2)ccc2c3n(c(=NC(=O)c4cnc(N)nc4)nc12)CCN3"
readout_number = 72.1

[[record]]
compound = "CCCS(=O)(=O)Nc1ccc(F)c(C(=O)c2c[nH]c3ncc(-c4ccc(Cl)cc4)cc23)c1F + CC(Nc1ccc2c(c1)OCCn1cc(N3C(=O)OCC3C(F)F)nc1-2)C(N)=O"
readout_number = 102

[[record]]
compound = "C[C@@H](NC(=O)c1ncnc(N)c1Cl)c1ncc(C(=O)Nc2cc(C(F)(F)F)c(Cl)cn2)s1 + CC(Nc1ccc2c(c1)OCCn1cc(N3C(=O)OCC3C(F)F)nc1-2)C(N)=O"
readout_number = 105


###

// reported pIC50 per item
system: K98450-129-R-PDC multicell spheroids, viability; experiment: Anticancer human tumor K98450-129-R-PDC cell line growth inhibition [PI3K]; conditions: curve of first compound; second compound 1 µM;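 also: spheroids exposed to agents for seven days before read-out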
pIC50: −log10 of the molar value.
Observable: pIC50

[[record]]
compound = "C=CC(=O)N1CCN(c2nc(=O)n(-c3c(C)ccnc3C(C)C)c3nc(-c4c(O)cccc4F)c(F)cc23)C(C)C1 (stereo not given) + Cc1nc(NC(=O)N2CCCC2C(N)=O)sc1-c1ccnc(C(C)(C)C(F)(F)F)c1"
assayed_target = "K98450-129-R-PDC multicell spheroids, viability"
observable = "pIC50"
operator = "="
readout_number = 5.72

[[record]]
compound = "CNC(=O)c1ccc(N2C(=S)N(c3ccc(C#N)c(C(F)(F)F)c3)C(=O)C2(C)C)cc1F + CC(Nc1ccc2c(c1)OCCn1cc(N3C(=O)OCC3C(F)F)nc1-2)C(N)=O"
assayed_target = "K98450-129-R-PDC multicell spheroids, viability"
observable = "pIC50"
operator = "<"
readout_number = 5.00

[[record]]
compound = "CNC(=O)c1ccc(N2C(=S)N(c3ccc(C#N)c(C(F)(F)F)c3)C(=O)C2(C)C)cc1F + COc1c(OCCCN2CCOCC2)ccc2c3n(c(=NC(=O)c4cnc(N)nc4)nc12)CCN3"
assayed_target = "K98450-129-R-PDC multicell spheroids, viability"
observable = "pIC50"
operator = "<"
readout_number = 5.00

[[record]]
compound = "Cn1cnc2c(F)c(Nc3ccc(Br)cc3Cl)c(C(=O)NOCCO)cc21 + Cc1nc(NC(=O)N2CCCC2C(N)=O)sc1-c1ccnc(C(C)(C)C(F)(F)F)c1"
assayed_target = "K98450-129-R-PDC multicell spheroids, viability"
observable = "pIC50"
operator = "="
readout_number = 6.16

[[record]]
compound = "CCN1CCN(Cc2ccc(Nc3ncc(F)c(-c4cc(F)c5nc(C)n(C(C)C)c5c4)n3)nc2)CC1 + COc1c(OCCCN2CCOCC2)ccc2c3n(c(=NC(=O)c4cnc(N)nc4)nc12)CCN3"
assayed_target = "K98450-129-R-PDC multicell spheroids, viability"
observable = "pIC50"
operator = ">"
readout_number = 8.50


###

tested on: K98450-129-R-PDC multicell spheroids, viability; experiment: Anticancer human tumor K98450-129-R-PDC cell line growth inhibition [PI3K]; conditions: second compound 0.0316 µM; first compound 0.1 µM; stronger effect = lower value;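 also: spheroids exposed to agents for seven days before read-out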
// reported viability, T/C per item
Observable: viability, T/C (%)

[[record]]
compound = "C#Cc1c(F)ccc2cc(O)cc(-c3ncc4c(N5CC6CCC(C5)N6)nc(OCC56CCCN5CC(F)C6)nc4c3F)c12 (stereo not drawn) + COc1c(OCCCN2CCOCC2)ccc2c3n(c(=NC(=O)c4cnc(N)nc4)nc12)CCN3"
observable = "viability, T/C"
quantity_unit = "%"
readout_number = 101

[[record]]
compound = "CC(Cn1ccc(-c2ccc(C#N)c(Cl)c2)n1)NC(=O)c1cc(C(C)O)[nH]n1 (stereo not drawn) + CC(Nc1ncnc2nc[nH]c12)c1cc2cccc(Cl)c2c(=O)n1-c1ccccc1"
observable = "viability, T/C"
quantity_unit = "%"
readout_number = 101

[[record]]
compound = "CC1(C)CCC(Nc2ncc(C(F)(F)F)c(-c3c[nH]c4c(P(C)(C)=O)c(C#N)ccc34)n2)CN1 (stereo not drawn) + CC(Nc1ccc2c(c1)OCCn1cc(N3C(=O)OCC3C(F)F)nc1-2)C(N)=O"
observable = "viability, T/C"
quantity_unit = "%"
readout_number = 109


###

// reported viability, T/C per item
system: K98450-129-R-PDC multicell spheroids, viability; test: Anticancer human tumor K98450-129-R-PDC cell line growth inhibition [PI3K]; conditions: second compound 0.01 µM; first compound 0.316 µM; stronger effect = lower value;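 also: spheroids exposed to agents for seven days before read-out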
Observable: viability, T/C (%)

[[record]]
compound = "CCCS(=O)(=O)Nc1ccc(F)c(C(=O)c2c[nH]c3ncc(-c4ccc(Cl)cc4)cc23)c1F + COc1c(OCCCN2CCOCC2)ccc2c3n(c(=NC(=O)c4cnc(N)nc4)nc12)CCN3"
assayed_target = "K98450-129-R-PDC multicell spheroids, viability"
readout_number = 93.4

[[record]]
compound = "C=CC(=O)N1CCN(c2nc(=O)n(-c3c(C)ccnc3C(C)C)c3nc(-c4c(O)cccc4F)c(F)cc23)C(C)C1 (stereo not drawn) + CC(Nc1ccc2c(c1)OCCn1cc(N3C(=O)OCC3C(F)F)nc1-2)C(N)=O"
assayed_target = "K98450-129-R-PDC multicell spheroids, viability"
readout_number = 110

[[record]]
compound = "CCN1CCN(Cc2ccc(Nc3ncc(F)c(-c4cc(F)c5nc(C)n(C(C)C)c5c4)n3)nc2)CC1 + CC(Nc1ccc2c(c1)OCCn1cc(N3C(=O)OCC3C(F)F)nc1-2)C(N)=O"
assayed_target = "K98450-129-R-PDC multicell spheroids, viability"
readout_number = 84.9


###

// reported IC50 per item
test system: K98450-129-R-PDC multicell spheroids, viability; assay: Anticancer human tumor K98450-129-R-PDC cell line growth inhibition [PI3K]; settings: curve of first compound; second compound 1 µM;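 also: spheroids exposed to agents for seven days before read-out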
Observable: IC50

[[record]]
molecule = "CCN1CCN(Cc2ccc(Nc3ncc(F)c(-c4cc(F)c5nc(C)n(C(C)C)c5c4)n3)nc2)CC1 + CC(Nc1ncnc2nc[nH]c12)c1cc2cccc(Cl)c2c(=O)n1-c1ccccc1"
result = "> 1 µM"

[[record]]
molecule = "CNC(=O)c1ccc(N2C(=S)N(c3ccc(C#N)c(C(F)(F)F)c3)C(=O)C2(C)C)cc1F + Cc1nc(NC(=O)N2CCCC2C(N)=O)sc1-c1ccnc(C(C)(C)C(F)(F)F)c1"
result = "> 10 µM"

[[record]]
molecule = "CC1(C)CCC(CN2CCN(c3ccc(C(=O)NS(=O)(=O)c4ccc(NCC5CCOCC5)c([N+](=O)[O-])c4)c(Oc4cnc5[nH]ccc5c4)c3)CC2)=C(c2ccc(Cl)cc2)C1 + CC(Nc1ncnc2nc[nH]c12)c1cc2cccc(Cl)c2c(=O)n1-c1ccccc1"
result = "5.29 µM"

[[record]]
molecule = "Cn1nccc1Nc1nccc(-c2ccn(C(CO)c3ccc(Cl)c(F)c3)c(=O)c2)n1 (stereo not given) + CC(Nc1ncnc2nc[nH]c12)c1cc2cccc(Cl)c2c(=O)n1-c1ccccc1"
result = "> 10 µM"

[[record]]
molecule = "Cn1ncnc1[C@H]1c2n[nH]c(=O)c3cc(F)cc(c23)N[C@@H]1c1ccc(F)cc1 + CC(Nc1ncnc2nc[nH]c12)c1cc2cccc(Cl)c2c(=O)n1-c1ccccc1"
result = "> 0.1 µM"

